Test system: UACC-257 melanoma
Experiment: NCI-60 one-dose screen, 48 h
Settings: 10 µM unless noted
Compounds without any hit were thinned out: in the full panel of roughly 83,000, 20% have a hit. Activity calls are given as the source filed them. Rule for the calls: active = growth percent below 10; inactive = the rest.
Respond using exactly one of the listed classes: yes (1) for active, no (0) for inactive

For orientation, consider the following solved cases.
Compound	Class
CC(=O)Cc1nsc(NC(=O)c2cc(-c3cc(Cl)cc(Cl)c3)oc2C)n1	no (0)
S=C(Nc1ccc(-c2nc(N3CCOCC3)c3cccn3n2)cc1)Nc1cccnc1	no (0)
COc1ccc(C(c2cc(OC)c(OC)c(OC)c2)N2CCN(c3ccccc3)CC2)cc1 (centres undefined)	no (0)
N#CCSc1nnc2n(Cc3ccccc3)c(=O)c3c4c(sc3n12)CCCC4	no (0)
COc1ccc(C2c3sc4c(F)cccc4c3Oc3nc[nH]c(=O)c32)cc1 (centres undefined)	no (0)
O=C1c2cccnc2C(=O)c2c1c(C(=O)NCCCN1CCCCC1)c1ccccn21	yes (1)
COc1ccc(/C=C2\COc3ccc(O)cc3C2=O)c(OC)c1OC	no (0)
O=C1Nc2ccc(Br)cc2/C1=N/c1n[nH]c(=S)s1	no (0)

Query :: What call does the record list for CCCC(O)Cn1ncc(C(=O)OCC)c1NC(=O)NCc1ccccc1F (centres undefined) ?
Result :: no (0)

Query :: What call does the record list for CCOC(=O)C#Cc1c(C(=O)OCC)nnn1[C@@H]1O[C@H](CO)[C@H]2OC3(CCCCC3)O[C@H]21 ?
Result :: no (0)

Query :: What call does the record list for CC1=Nc2cnc(Nc3ccc(OCCN4CCCCC4)cc3)nc2Nc2ccccc21 ?
Result :: no (0)

Query :: What call does the record list for Clc1ccc(CNc2c3ccccc3nc3ccccc23)cc1 ?
Result :: no (0)

Query :: What call does the record list for CCN(CC)c1ccc(/C=C/C(=O)c2ccc(Nc3nc(Nc4ccccc4)nc(Nc4ccccc4)n3)cc2)cc1 ?
Result :: no (0)

Query :: What call does the record list for Oc1ccc(CCn2c(O)c(/C=C3\CN=c4ccccc4=N3)sc2=S)cc1 ?
Result :: no (0)

Query :: What call does the record list for Cc1nc2ncnc(Cl)c2[nH]1 ?
Result :: no (0)

Query :: What call does the record list for O=C(NCc1ccccc1)Nc1ccccc1CNc1nc(Nc2ccc(OCCN3CCCC3)cc2)ncc1Cl ?
Result :: no (0)

Query :: What call does the record list for COC(=O)/C(CCC=C(C)C)=C1\[C@@H](OC(C)=O)C[C@@]2(C)[C@H]1C[C@@H](O)[C@H]1[C@@]3(C)CC[C@H](NCCN)[C@@H](C)[C@@H]3CC[C@@]12C ?
Result :: no (0)

Query :: What call does the record list for O=C1c2ccc3c4ccc5c6c(ccc(c7ccc(c2c37)C(=O)N1CCC[P+](c1ccccc1)(c1ccccc1)c1ccccc1)c64)C(=O)N(CCC[P+](c1ccccc1)(c1ccccc1)c1ccccc1)C5=O ?
Result :: no (0)

Query :: What call does the record list for CN1C(=O)/C(=C/c2ccc(C(=O)Nc3ncc(Cc4ccc(Cl)cc4)s3)cc2)SC1=S ?
Result :: no (0)

Query :: What call does the record list for CCOC(=O)c1cc2c(=O)oc3ccccc3c2oc1=O ?
Result :: no (0)

Query :: What call does the record list for COc1ccc(CC(C#N)c2cc3ccccc3[nH]2)cc1 (centres undefined) ?
Result :: no (0)

Query :: What call does the record list for Cc1ccc(-c2cc(-c3ccc(Cl)cc3)nc(NC(=O)c3cccnc3)n2)cc1 ?
Result :: no (0)
